For each record, write down the corresponding IC50.
tgt: SARS-CoV-2 M^pro (Severe acute respiratory syndrome coronavirus 2, UniProt P0DTD1)
method.description: FRET screening of SARS-CoV-2 M^pro inhibitors
Format: biochemical
stated.conditions: without Triton X-100; n = 5

Endpoint output: IC50 of COc1cc(O)c2c(c1)C(=O)c1cc(C)cc(O)c1C2=O . Value?
22.1 µM

Query: IC50; subject: C[C@@H]1O[C@@H](O[C@@H]2[C@@H](O)[C@H](OCCc3ccc(O)c(O)c3)O[C@H](CO)[C@H]2OC(=O)/C=C/c2ccc(O)c(O)c2)[C@H](O)[C@H](O)[C@H]1O [Acteoside]
2.53 µM

Record request: IC50 value, item COc1c(/C=C/C(=O)c2ccc(O)c(CC=C(C)C)c2)ccc(O)c1O
5.54 µM

Item under review: COc1c(/C=C/C(=O)c2ccc(O)cc2)ccc(O)c1O . Reported IC50?
4.24 µM

* * *

method.description: in vitro
Assay type: cell-based
stated.conditions: African green monkey
measurement.label: CC50

For the molecule shown here, C[C@@H]1O[C@@H](O[C@@H]2[C@@H](O)[C@H](OCCc3ccc(O)c(O)c3)O[C@H](CO)[C@H]2OC(=O)/C=C/c2ccc(O)c(O)c2)[C@H](O)[C@H](O)[C@H]1O [Acteoside] , give the reported CC50.
> 100 µM

* * *

tgt: SARS-CoV-2 M^pro (Severe acute respiratory syndrome coronavirus 2, UniProt P0DTD1)
method.description: FRET screening of SARS-CoV-2 M^pro inhibitors
Format: biochemical
stated.conditions: with 0.01% Triton X-100; n = 5
measurement.label: pIC50
The read-out pIC50 is expressed as -log10 of concentration in moles per litre.

Look up pIC50 for this molecule: COc1c(/C=C/C(=O)c2ccc(O)cc2)ccc(O)c1O
5.29

Looking for the measured pIC50 of C[C@@H]1O[C@@H](O[C@@H]2[C@@H](O)[C@H](OCCc3ccc(O)c(O)c3)O[C@H](CO)[C@H]2OC(=O)/C=C/c2ccc(O)c(O)c2)[C@H](O)[C@H](O)[C@H]1O [Acteoside] , can you help?
5.71

// pIC50 lookup, key: CCCCC/C=C\C/C=C\CCCCCCCC(=O)O
4.37

Please give the measured pIC50 for this molecule: COc1cc(O)c2c(c1)C(=O)c1cc(C)cc(O)c1C2=O
4.50

pIC50 lookup needed for COc1c(/C=C/C(=O)c2ccc(O)c(CC=C(C)C)c2)ccc(O)c1O , thanks.
4.53
